Values from patent US20240182561A1

Form field: pKd (one value per entry).
Molecular target: T1, nanodisc embedded human CACNG1 expressed with a C-terminal PADRE-Flag-His tag (human, UniProt Q06432 1-222)
T1 construct: Captured on an anti-His Biacore surface; also called human CACNG1 nanodisc; CACNG1 nanodisc; not shown: C-terminal tag
T1 sequence (Q06432 whole entry): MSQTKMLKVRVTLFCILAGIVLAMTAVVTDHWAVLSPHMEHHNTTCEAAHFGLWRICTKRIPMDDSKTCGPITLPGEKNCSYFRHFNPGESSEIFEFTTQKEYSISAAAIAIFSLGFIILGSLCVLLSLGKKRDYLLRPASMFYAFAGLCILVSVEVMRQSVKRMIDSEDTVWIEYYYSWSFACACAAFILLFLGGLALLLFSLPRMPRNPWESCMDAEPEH
Experiment: SPR, anti-His-captured nanodisc, 25 C
Procedure: Equilibrium dissociation constants (KD values) for nanodisc embedded human CACNG1 expressed with a C-terminal […] tag (human CACNG1 nanodisc; concentration 0.82 mg/ml) binding to purified anti-CACNG1 antibodies were determined using a real-time surface plasmon resonance biosensor technology with a Biacore T200 instrument. The CM5 Biacore sensor surface was derivatized by amine coupling with a monoclonal mouse anti-His antibody (Cytiva; Marlborough, MA). […]
pKd: −log10 of the molar value.

| BINDER | pKd |
| --- | --- |
| REGN9909 (antibody, mouse IgG2a, kappa, V domains shown, mIgG2a) VH: EVQLLESGGGLVQPGGSLRLSCAASGFTFNNYGMSWVRQGPGKGLEWVSSISGSGGTTFYADSVKGRFTISRDNSKNTLYLQMNSLRAEDTAVYYCGKGGYCSSSGCRHYGMDVWGQGTTVTVSS VL: QSVLTQPPSASGTPGQRVTISCSGSSSNIGNNYIYWYQRLPGTTPKLLIYRNNQRPSGVPDRFSGSKSGTSASLAISGLRSEDEADYYCAAWDDTLSGYVFGTGTKVTVLR | 8.38 |
| REGN9908 (antibody, mouse IgG2b, V domains shown, mIgG2b) VH: EVQLLESGGGLAQPGGSLRLSCAASGFTFSSYAMSWVRQAPGKGLEWVSSVSGSGGTTYYAASVKGRFTVSRDNSKKTLYLQMNSLRAEDTAVYYCGKGGYCSSSGCRHYGMDVWGQGTTVTVSA VL: QSVLTQPPSASGTPGQRVAISCSGSNSNIGNNYLYWYQQIPGTTPKLLIYRNNQRPSGVPDRFSASKSGTSASLAISGLRSGDEADYYCAAWDDSLSGYVFGTGTKVTVLG | 8.02 |
| REGN10712 (antibody, human IgG4 S228P, lambda, V domains shown, hIgG4) VH: QVQLVESGGGVVQPGRSLRLSCAASGFTFSTYGMYWVRQTPGKGLEWVTVISFDGNKKYYADSVKGRFTISRDNSKNTLFLQMNSLKTEDTAVYYCAKSSNWNYGSFDIWGQGTMVTVSS VL: QSVLTQPPSVSGAPGQRVTISCTGSSSNIGAGYDVHWYQQLPGTAPRLLISYNSNRPSGVPDRFSGSKSGTSASLAITGLQAEDEADYYCQSYDRSLSGSVFGGGTQLTVLG | 8.34 |
